Sourced from patent US20230321251A1

Assay: Tissue distribution test (plasma, liver, kidney, lung)
Settings: ICR, mouse, in vivo, iv, 5 mg/kg, Plasma Concentration, ICR mice, 24 hours after administration
recorded-metric: concentration at 24 h (ng/mL)
Give the quantity in ng/mL, number only.

Measured concentration at 24 h of CCCCCCCCCCNCCN[C@@]1(C)C[C@H](O[C@H]2[C@H](Oc3c4cc5cc3Oc3ccc(cc3Cl)[C@@H](O)[C@@H]3NC(=O)[C@H](NC(=O)[C@@H]5NC(=O)[C@H](CC(N)=O)NC(=O)C(NC(=O)[C@@H](CC(C)C)NC)[C@H](O)c5ccc(c(Cl)c5)O4)c4ccc(O)c(c4)-c4c(cc(O)c(CNCP(=O)(O)O)c4O)[C@@H](C(=O)O)NC3=O)O[C@H](CO)[C@@H](O)[C@@H]2O)O[C@@H](C)[C@H]1O (stereo partly shown) [Telavancin drug substance, telavancin] : 51.9

###

Test: Tissue distribution test (plasma, liver, kidney, lung)
Conditions: ICR, mouse, in vivo, iv, 5 mg/kg, Lung Kp, lung/plasma concentration ratio, ICR mice, 0.5 hour
recorded-metric: Kp at 0.5 h
Reply briefly: the number, and no unit.

Measured Kp at 0.5 h of CCCCCCCCCCNCCN[C@@]1(C)C[C@H](O[C@H]2[C@H](Oc3c4cc5cc3Oc3ccc(cc3Cl)[C@@H](O)[C@@H]3NC(=O)[C@H](NC(=O)[C@@H]5NC(=O)[C@H](CC(N)=O)NC(=O)C(NC(=O)[C@@H](CC(C)C)NC)[C@H](O)c5ccc(c(Cl)c5)O4)c4ccc(O)c(c4)-c4c(cc(O)c(CNCP(=O)(O)O)c4O)[C@@H](C(=O)O)NC3=O)O[C@H](CO)[C@@H](O)[C@@H]2O)O[C@@H](C)[C@H]1O (stereo partly shown) : 0.32

###

Assay: Tissue distribution test (plasma, liver, kidney, lung)
Conditions: ICR, mouse, in vivo, iv, 5 mg/kg, Liver Concentration, ICR mice, 0.5 hour after administration
recorded-metric: concentration at 0.5 h (ng/mL)
Give the quantity in ng/mL, number only.

Measured concentration at 0.5 h of CCCCCCCCCCNCCN[C@@]1(C)C[C@H](O[C@H]2[C@H](Oc3c4cc5cc3Oc3ccc(cc3Cl)[C@@H](O)[C@@H]3NC(=O)[C@H](NC(=O)[C@@H]5NC(=O)[C@H](CC(N)=O)NC(=O)C(NC(=O)[C@@H](CC(C)C)NC)[C@H](O)c5ccc(c(Cl)c5)O4)c4ccc(O)c(c4)-c4c(cc(O)c(CNCP(=O)(O)O)c4O)[C@@H](C(=O)O)NC3=O)O[C@H](CO)[C@@H](O)[C@@H]2O)O[C@@H](C)[C@H]1O (stereo partly shown) : 3780

###

Assay: Tissue distribution test (plasma, liver, kidney, lung)
Conditions: ICR, mouse, in vivo, iv, 5 mg/kg, Lung Concentration, ICR mice, 24 hours after administration
recorded-metric: concentration at 24 h (ng/mL)
Give the quantity in ng/mL, number only.

Measured concentration at 24 h of CCCCCCCCCCNCCN[C@@]1(C)C[C@H](O[C@H]2[C@H](Oc3c4cc5cc3Oc3ccc(cc3Cl)[C@@H](O)[C@@H]3NC(=O)[C@H](NC(=O)[C@@H]5NC(=O)[C@H](CC(N)=O)NC(=O)C(NC(=O)[C@@H](CC(C)C)NC)[C@H](O)c5ccc(c(Cl)c5)O4)c4ccc(O)c(c4)-c4c(cc(O)c(CNCP(=O)(O)O)c4O)[C@@H](C(=O)O)NC3=O)O[C@H](CO)[C@@H](O)[C@@H]2O)O[C@@H](C)[C@H]1O (stereo partly shown) : 736

###

Assay: Tissue distribution test (plasma, liver, kidney, lung)
Conditions: ICR, mouse, in vivo, iv, 5 mg/kg, Kidney Kp, kidney/plasma concentration ratio, ICR mice, 2 hours
recorded-metric: Kp at 2 h
Reply briefly: the number, and no unit.

Measured Kp at 2 h of CCCCCCCCCCNCCN[C@@]1(C)C[C@H](O[C@H]2[C@H](Oc3c4cc5cc3Oc3ccc(cc3Cl)[C@@H](O)[C@@H]3NC(=O)[C@H](NC(=O)[C@@H]5NC(=O)[C@H](CC(N)=O)NC(=O)C(NC(=O)[C@@H](CC(C)C)NC)[C@H](O)c5ccc(c(Cl)c5)O4)c4ccc(O)c(c4)-c4c(cc(O)c(CNCP(=O)(O)O)c4O)[C@@H](C(=O)O)NC3=O)O[C@H](CO)[C@@H](O)[C@@H]2O)O[C@@H](C)[C@H]1O (stereo partly shown) [Telavancin drug substance, telavancin] : 1.64

###

Test: Tissue distribution test (plasma, liver, kidney, lung)
Conditions: ICR, mouse, in vivo, iv, 5 mg/kg, Kidney Kp, kidney/plasma concentration ratio, ICR mice, 24 hours
recorded-metric: Kp at 24 h
Reply briefly: the number, and no unit.

Measured Kp at 24 h of CCCCCCCCCCNCCN[C@@]1(C)C[C@H](O[C@H]2[C@H](Oc3c4cc5cc3Oc3ccc(cc3Cl)[C@@H](O)[C@@H]3NC(=O)[C@H](NC(=O)[C@@H]5NC(=O)[C@H](CC(N)=O)NC(=O)C(NC(=O)[C@@H](CC(C)C)NC)[C@H](O)c5ccc(c(Cl)c5)O4)c4ccc(O)c(c4)-c4c(cc(O)c(CNCP(=O)(O)O)c4O)[C@@H](C(=O)O)NC3=O)O[C@H](CO)[C@@H](O)[C@@H]2O)O[C@@H](C)[C@H]1O (stereo partly shown) [Telavancin drug substance, telavancin] : 49.9

###

Assay: In vitro cytotoxicity test (resazurin)
Format: cell-based
Conditions: African green monkey, Vero cells, 72 hours culture
recorded-metric: CC50 at 72 h (µg/mL)
Give the quantity in µg/mL, number only.

Measured CC50 at 72 h of CN[C@H](CC(C)C)C(=O)NC1C(=O)N[C@@H](CC(N)=O)C(=O)N[C@H]2C(=O)N[C@H]3C(=O)N[C@H](C(=O)N[C@@H](C(=O)O)c4cc(O)cc(O)c4-c4cc3ccc4O)[C@H](O[C@H]3C[C@](C)(N)[C@@H](O)[C@H](C)O3)c3ccc(c(Cl)c3)Oc3cc2cc(c3O[C@@H]2O[C@H](CO)[C@@H](O[C@@H]3O[C@H](CNCc4ccc(-c5ccc(Cl)cc5)s4)[C@H](O)[C@H](O)[C@H]3O)[C@H](O)[C@H]2O)Oc2ccc(cc2Cl)[C@H]1O (stereo partly shown) : 128

###

Assay: Tissue distribution test (plasma, liver, kidney, lung)
Details: ICR, mouse, in vivo, iv, 5 mg/kg, Plasma Concentration, ICR mice, 0.5 hour after administration
recorded-metric: concentration at 0.5 h

Measured concentration at 0.5 h of CCCCCCCCCCNCCN[C@@]1(C)C[C@H](O[C@H]2[C@H](Oc3c4cc5cc3Oc3ccc(cc3Cl)[C@@H](O)[C@@H]3NC(=O)[C@H](NC(=O)[C@@H]5NC(=O)[C@H](CC(N)=O)NC(=O)C(NC(=O)[C@@H](CC(C)C)NC)[C@H](O)c5ccc(c(Cl)c5)O4)c4ccc(O)c(c4)-c4c(cc(O)c(CNCP(=O)(O)O)c4O)[C@@H](C(=O)O)NC3=O)O[C@H](CO)[C@@H](O)[C@@H]2O)O[C@@H](C)[C@H]1O (stereo partly shown) : 18200 ng/mL

###

Test: Tissue distribution test (plasma, liver, kidney, lung)
Details: ICR, mouse, in vivo, iv, 5 mg/kg, Liver Concentration, ICR mice, 2 hours after administration
Experimental: (3) Tissue Distribution of Active Ingredient after Administration of Liposome Formulation (Tissue Distribution Test) The compound of the present invention was intravenously administered at a dose of 5 mg/kg to ICR mice. […] Then, the liver, kidney, and lung were removed, and a 25% homogenate was prepared with distilled water. The obtained blood was centrifuged, and plasma was then obtained. Thereafter, each sample was measured using LC/MS/MS. […]
recorded-metric: concentration at 2 h (ng/mL)
Give the quantity in ng/mL, number only.

Measured concentration at 2 h of CCCCCCCCCCNCCN[C@@]1(C)C[C@H](O[C@H]2[C@H](Oc3c4cc5cc3Oc3ccc(cc3Cl)[C@@H](O)[C@@H]3NC(=O)[C@H](NC(=O)[C@@H]5NC(=O)[C@H](CC(N)=O)NC(=O)C(NC(=O)[C@@H](CC(C)C)NC)[C@H](O)c5ccc(c(Cl)c5)O4)c4ccc(O)c(c4)-c4c(cc(O)c(CNCP(=O)(O)O)c4O)[C@@H](C(=O)O)NC3=O)O[C@H](CO)[C@@H](O)[C@@H]2O)O[C@@H](C)[C@H]1O (stereo partly shown) [Telavancin drug substance, telavancin] : 4050

###

Experiment: Plasma concentration of active ingredient after intravenous administration (PK parameters)
Conditions: ICR, mouse, in vivo, iv, 5 mg/kg
recorded-metric: half-life
Form field: result (number plus unit)

Measured half-life of CCCCCCCCCCNCCN[C@@]1(C)C[C@H](O[C@H]2[C@H](Oc3c4cc5cc3Oc3ccc(cc3Cl)[C@@H](O)[C@@H]3NC(=O)[C@H](NC(=O)[C@@H]5NC(=O)[C@H](CC(N)=O)NC(=O)C(NC(=O)[C@@H](CC(C)C)NC)[C@H](O)c5ccc(c(Cl)c5)O4)c4ccc(O)c(c4)-c4c(cc(O)c(CNCP(=O)(O)O)c4O)[C@@H](C(=O)O)NC3=O)O[C@H](CO)[C@@H](O)[C@@H]2O)O[C@@H](C)[C@H]1O (stereo partly shown) : 2.7 h
